Where do these numbers come from? They come from patent US12686664B2.

Items are presented alongside their recorded pIC50.
# Tested on: store-operated Ca^2+ entry in PLP-B lymphocytes
# Test Name: Store-operated Ca2+ entry after thapsigargin depletion of ER Ca2+ stores in PLP-B lymphocytes
# Format: cell-based
# Condition Notes: SOCE in PLP-B lymphocytes; average of three assays, ±0.5 μM
pIC50: −log10 of the molar value.
Reported Endpoint: pIC50

>  <Compound>
COc1ccc(OC)c(-c2ccc(NC(=O)c3ccncc3F)cc2)c1 [Synta 66, reference compound]

>  <Reported Endpoint>
pIC50

>  <Quantitative Readout>
5.06

$$$$
>  <Compound>
O=C(Nc1ccn(Cc2ccc(O)cc2C(F)(F)F)n1)c1c(F)cccc1F [GSK-7975A]

>  <Reported Endpoint>
pIC50

>  <Quantitative Readout>
5.64

$$$$
